Molecular target: PAD2 (Homo sapiens, UniProt Q9Y2J8)
Sequence (Q9Y2J8 whole entry): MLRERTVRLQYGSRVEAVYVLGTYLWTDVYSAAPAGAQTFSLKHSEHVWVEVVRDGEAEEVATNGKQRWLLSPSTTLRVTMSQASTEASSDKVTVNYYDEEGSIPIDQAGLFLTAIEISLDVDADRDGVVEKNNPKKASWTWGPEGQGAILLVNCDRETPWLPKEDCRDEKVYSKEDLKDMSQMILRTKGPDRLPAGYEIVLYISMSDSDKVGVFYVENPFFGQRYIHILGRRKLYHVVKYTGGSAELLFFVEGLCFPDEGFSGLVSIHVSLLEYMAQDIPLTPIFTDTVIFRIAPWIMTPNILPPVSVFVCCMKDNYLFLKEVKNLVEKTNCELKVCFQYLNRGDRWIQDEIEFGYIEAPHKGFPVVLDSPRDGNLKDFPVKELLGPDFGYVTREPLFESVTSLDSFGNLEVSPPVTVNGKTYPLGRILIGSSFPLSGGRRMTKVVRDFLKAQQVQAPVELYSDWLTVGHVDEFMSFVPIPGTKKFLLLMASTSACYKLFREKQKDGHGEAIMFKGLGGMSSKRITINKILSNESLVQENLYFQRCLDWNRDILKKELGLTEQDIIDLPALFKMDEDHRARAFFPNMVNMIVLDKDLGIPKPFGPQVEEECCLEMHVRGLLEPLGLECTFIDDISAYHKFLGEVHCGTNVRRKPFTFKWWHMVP
assay-readout: pKi
Give bare numbers, as −log10 of the molar value.

Lookup: Recorded pKi of COC1=C(N)C(=O)c2nc(-c3nc(C(=O)O)c(C)c(-c4ccc(OC)c(OC)c4O)c3N)ccc2C1=O , please.
Found: 4.77

----------
Biological target: UniProtKB Q9UM07
Assay: PAD4 inhibition/inactivation, residual activity measured with BAEE
Assay type: biochemical
assay-readout: Ki (µM)
Answers are plain numbers, in µM.

Lookup: Ki for COC1=C(N)C(=O)c2nc(-c3nc(C(=O)O)c(C)c(-c4ccc(OC)c(OC)c4O)c3N)ccc2C1=O ?
Found: 8.5

----------
Target: PAD4 (Homo sapiens, UniProt Q9UM07)
Sequence (Q9UM07 whole entry): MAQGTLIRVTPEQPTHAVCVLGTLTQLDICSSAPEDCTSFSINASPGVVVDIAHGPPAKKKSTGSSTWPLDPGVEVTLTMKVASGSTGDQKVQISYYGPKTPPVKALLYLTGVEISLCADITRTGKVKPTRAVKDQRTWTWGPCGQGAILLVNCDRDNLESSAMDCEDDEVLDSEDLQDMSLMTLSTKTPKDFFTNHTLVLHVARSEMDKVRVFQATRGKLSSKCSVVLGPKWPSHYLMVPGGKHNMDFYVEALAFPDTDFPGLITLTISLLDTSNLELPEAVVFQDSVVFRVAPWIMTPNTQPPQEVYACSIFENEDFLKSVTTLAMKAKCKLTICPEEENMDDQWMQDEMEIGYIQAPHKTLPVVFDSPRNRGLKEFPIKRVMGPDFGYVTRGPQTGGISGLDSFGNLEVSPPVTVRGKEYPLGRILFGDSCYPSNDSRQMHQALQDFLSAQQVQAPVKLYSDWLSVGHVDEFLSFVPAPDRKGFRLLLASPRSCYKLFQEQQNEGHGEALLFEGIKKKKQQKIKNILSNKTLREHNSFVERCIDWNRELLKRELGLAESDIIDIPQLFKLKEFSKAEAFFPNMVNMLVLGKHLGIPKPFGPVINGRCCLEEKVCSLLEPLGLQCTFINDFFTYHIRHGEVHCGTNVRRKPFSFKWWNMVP
Assay: PAD4 inhibition/inactivation, residual activity measured with BAEE
Format: biochemical
Settings: read-out: IC50 for PAD4; Table 1, hits of the HTS
assay-readout: IC50 (µM)
Answers are plain numbers, in µM.

Lookup: Could you tell me which IC50 is on file for Cc1ccc(S(=O)(=O)N[C@@H](Cc2ccccc2)C(=O)CCl)cc1 ?
Found: 13

----------
Target: PAD4 (Homo sapiens, UniProt Q9UM07)
Assay: PAD4 inhibition/inactivation, residual activity measured with BAEE
Assay type: biochemical
assay-readout: IC50
Please give the number followed by its unit.

Lookup: What value of IC50 on PAD4 (Homo sapiens, UniProt Q9UM07) does COC1=C(N)C(=O)c2nc(-c3nc(C(=O)O)c(C)c(-c4ccc(OC)c(OC)c4O)c3N)ccc2C1=O have?
Found: 1870 nM

----------
Biological target: PAD1 (Homo sapiens, UniProt Q9ULC6)
Sequence (Q9ULC6 1-663): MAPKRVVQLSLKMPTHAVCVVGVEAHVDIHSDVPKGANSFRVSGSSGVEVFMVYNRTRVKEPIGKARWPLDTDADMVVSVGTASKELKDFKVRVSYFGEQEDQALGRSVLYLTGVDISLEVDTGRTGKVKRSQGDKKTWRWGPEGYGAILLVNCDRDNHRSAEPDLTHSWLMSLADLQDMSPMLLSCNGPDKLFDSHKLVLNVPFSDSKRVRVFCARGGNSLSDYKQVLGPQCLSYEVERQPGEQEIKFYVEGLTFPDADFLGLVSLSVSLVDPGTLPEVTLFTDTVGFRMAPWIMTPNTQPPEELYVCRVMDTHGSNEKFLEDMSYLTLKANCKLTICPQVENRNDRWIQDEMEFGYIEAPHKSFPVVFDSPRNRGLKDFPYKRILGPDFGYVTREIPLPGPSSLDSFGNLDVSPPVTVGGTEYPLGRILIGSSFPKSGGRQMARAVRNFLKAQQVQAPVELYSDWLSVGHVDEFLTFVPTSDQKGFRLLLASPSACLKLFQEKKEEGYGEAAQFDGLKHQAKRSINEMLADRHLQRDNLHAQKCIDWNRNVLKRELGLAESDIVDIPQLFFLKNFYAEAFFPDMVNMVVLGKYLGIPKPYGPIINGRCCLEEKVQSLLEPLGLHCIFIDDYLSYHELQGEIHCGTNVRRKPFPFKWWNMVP
assay-readout: pKi
Give bare numbers, as −log10 of the molar value.

Lookup: So what's the measured pKi for this one? COC1=C(N)C(=O)c2nc(-c3nc(C(=O)O)c(C)c(-c4ccc(OC)c(OC)c4O)c3N)ccc2C1=O
Found: 4.96

----------
Molecular target: PAD3 (Homo sapiens)
Sequence (Q9ULW8 1-664): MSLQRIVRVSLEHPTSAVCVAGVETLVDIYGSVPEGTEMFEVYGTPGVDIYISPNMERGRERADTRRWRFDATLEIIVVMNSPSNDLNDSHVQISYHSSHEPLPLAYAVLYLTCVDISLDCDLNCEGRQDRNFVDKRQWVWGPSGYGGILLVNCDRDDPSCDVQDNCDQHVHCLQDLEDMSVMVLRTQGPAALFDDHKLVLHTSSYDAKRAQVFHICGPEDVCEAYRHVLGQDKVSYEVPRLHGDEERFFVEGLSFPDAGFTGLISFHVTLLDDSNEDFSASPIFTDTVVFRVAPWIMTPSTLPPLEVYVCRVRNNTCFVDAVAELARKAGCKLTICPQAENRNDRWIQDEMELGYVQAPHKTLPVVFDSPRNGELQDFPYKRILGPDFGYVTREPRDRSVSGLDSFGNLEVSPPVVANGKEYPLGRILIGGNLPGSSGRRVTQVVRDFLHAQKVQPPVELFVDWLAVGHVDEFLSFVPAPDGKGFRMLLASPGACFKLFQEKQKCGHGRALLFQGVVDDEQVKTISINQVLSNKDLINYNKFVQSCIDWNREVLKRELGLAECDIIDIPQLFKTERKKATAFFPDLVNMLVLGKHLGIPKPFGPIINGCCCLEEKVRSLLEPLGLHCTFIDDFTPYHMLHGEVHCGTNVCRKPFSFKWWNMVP
assay-readout: pKi
Answers are plain numbers, as −log10 of the molar value.

Lookup: Look up pKi for this molecule: COC1=C(N)C(=O)c2nc(-c3nc(C(=O)O)c(C)c(-c4ccc(OC)c(OC)c4O)c3N)ccc2C1=O [NIH6, streptonigrin]
Found: 4.31
